# Tested on: SNB-19
# METHOD SUMMARY: NCI tumour cell line growth inhibition, 48 h
Activity calls are given as the source filed them. No stated cut-off is given here; in the data, active = GI50 up to about 1.1 µM and inactive = higher.
GI50 by entry:

Below, each entry is followed by its recorded GI50 result.
[
  {
    "MOLECULE": "CC1=NN(C(=O)Cc2ccccc2)C(=O)/C1=C\\c1ccco1",
    "READOUT LABEL": "GI50",
    "RESULT VALUE": "> 100 µM (inactive)"
  },
  {
    "MOLECULE": "C/C(=N/Nc1nc(C)cc(O)n1)C(=O)O",
    "READOUT LABEL": "GI50",
    "RESULT VALUE": "> 100 µM (inactive)"
  },
  {
    "MOLECULE": "COc1ccc2nc(-c3ccc(OCc4ccccc4)cc3)ccc2c1",
    "READOUT LABEL": "GI50",
    "RESULT VALUE": "> 100 µM (inactive)"
  },
  {
    "MOLECULE": "CC1(C)N=c2c(ncn2CCO)=C(C(N)=O)N1",
    "READOUT LABEL": "GI50",
    "RESULT VALUE": "> 100 µM (inactive)"
  },
  {
    "MOLECULE": "COc1cc([C@@H]2c3cc4c(cc3[C@@H](OC(=O)c3cccc(N)c3)C3COC(=O)[C@@H]32)OCO4)cc(OC)c1O (some centres not stated)",
    "READOUT LABEL": "GI50",
    "RESULT VALUE": "34.8 µM (inactive)"
  },
  {
    "MOLECULE": "N#CSC#Cc1ccc(C#CSC#N)cc1",
    "READOUT LABEL": "GI50",
    "RESULT VALUE": "21.3 µM (inactive)"
  }
]

Task: Report GI50, nothing else, for this molecule: c1ccc2c(CSCc3cccc4ccccc34)cccc2c1
Output: > 100 µM (inactive)
